ASSAY OVERVIEW: NCI Yeast Anticancer Drug Screen. Data for the rad50EPP+ strain (AID 151);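 note: 0% = growth of vehicle-treated control cultures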
ASSAY CONTEXT: S. cerevisiae rad50 mutant strain, at 3.7 µM, active compounds read high
About 79,000 compounds went through this panel and 15% of them were active in at least one assay; those are over-represented in the sample as a whole.
Decision: growth inhibition compared against 20%; not below it gives Fulfilled, below it gives Not fulfilled.

(Q) Could you please find out whether OC1C#CCSCC#C/C=C\1 (stereo not drawn) has growth inhibition that meets 20% or exceeds it?
(A) Not fulfilled

(Q) Could you please find out whether `O=C(CSS(=O)(=O)O)c1ccccc1` has growth inhibition that meets 20% or exceeds it?
(A) Not fulfilled

(Q) Could you please find out whether `Cc1ccc(S(=O)(=O)N/N=C/c2c(O)ccc3ccccc23)cc1` has growth inhibition that meets 20% or exceeds it?
(A) Not fulfilled

(Q) Could you please find out whether CCOC(=O)C(NC(=O)c1ccccc1)[CH](c1ccccc1)[Sn]([c]1ccccc1)([c]1ccccc1)[c]1ccccc1 (stereo not drawn) has growth inhibition that meets 20% or exceeds it?
(A) Not fulfilled

(Q) Could you please find out whether `Cc1cccc(N2CCN(C(=O)/C(=C/c3ccccc3)NC(=O)c3ccccc3)CC2)c1` has growth inhibition that meets 20% or exceeds it?
(A) Not fulfilled

(Q) Could you please find out whether `CCCCCCCCCCCCCCCCCN` has growth inhibition that meets 20% or exceeds it?
(A) Not fulfilled

(Q) Could you please find out whether `COc1ccc(CCN2C(=O)C=CC2=O)cc1OC` has growth inhibition that meets 20% or exceeds it?
(A) Fulfilled

(Q) Could you please find out whether CCCCCCCCCCCCCCCCOCC(Cl)COP(=O)(O)OP(=O)(O)OCC1OC(n2cnc3c(N)ncnc32)C(O)C1O (stereo not drawn) has growth inhibition that meets 20% or exceeds it?
(A) Fulfilled

(Q) Could you please find out whether NCC(O)CSCc1ccc(Cl)cc1 (stereo not drawn) has growth inhibition that meets 20% or exceeds it?
(A) Not fulfilled

(Q) Could you please find out whether `O=[N+]([O-])C(=C(NCc1ccccc1)NCc1ccccc1)C(Cl)=C(Cl)Cl` has growth inhibition that meets 20% or exceeds it?
(A) Not fulfilled

(Q) Could you please find out whether `CCCCCCCCCC/C=C\CC(=O)O` has growth inhibition that meets 20% or exceeds it?
(A) Not fulfilled

(Q) Could you please find out whether CCC1SC(=S)N(c2ccc(Cl)cc2)C1=O (stereo not drawn) has growth inhibition that meets 20% or exceeds it?
(A) Fulfilled

(Q) Could you please find out whether `O=c1[nH]cc(F)c(=O)[nH]1` has growth inhibition that meets 20% or exceeds it?
(A) Fulfilled

(Q) Could you please find out whether `COc1ccc2c(C)cc(N/N=C/c3sccc3C)nc2c1` has growth inhibition that meets 20% or exceeds it?
(A) Not fulfilled

(Q) Could you please find out whether `N=C(N)c1ccc(N=Nc2c(O)ccc3c2[nH]c2ccccc23)cc1` has growth inhibition that meets 20% or exceeds it?
(A) Fulfilled

(Q) Could you please find out whether `O=C(/C(=C/c1ccccc1)CBr)c1ccccc1` has growth inhibition that meets 20% or exceeds it?
(A) Fulfilled

(Q) Could you please find out whether `COc1cc(C(C)(C)C)cc(OC)c1C(O)(c1c(OC)cc(C(C)(C)C)cc1OC)c1c(OC)cc(C(C)(C)C)cc1OC` has growth inhibition that meets 20% or exceeds it?
(A) Not fulfilled

(Q) Could you please find out whether COc1ccc(/C(=N/O)c2ccccc2C2=Nc3ccccc3C(NCc3ccccc3)O2)cc1C (stereo not drawn) has growth inhibition that meets 20% or exceeds it?
(A) Not fulfilled

(Q) Could you please find out whether `CN(C)N1C(=O)SCC(c2ccccc2)(c2ccccc2)C1=O` has growth inhibition that meets 20% or exceeds it?
(A) Not fulfilled

(Q) Could you please find out whether `Cc1nc2ccc(NCCN(C)C)c3c(=O)c4ccccc4n1c23` has growth inhibition that meets 20% or exceeds it?
(A) Not fulfilled

(Q) Could you please find out whether `Cc1ccnc(NS(=O)(=O)c2ccc(Nc3c4ccccc4nc4ccccc34)cc2)n1` has growth inhibition that meets 20% or exceeds it?
(A) Fulfilled

(Q) Could you please find out whether `Cc1cc(NCCCN(C)C)c2ccc3c(ccc4c(NCCCN(C)C)cc(C)nc43)c2n1` has growth inhibition that meets 20% or exceeds it?
(A) Not fulfilled

(Q) Could you please find out whether `COc1ccc(C(=O)NCCN(C)C)c2nc3ccccc3cc12` has growth inhibition that meets 20% or exceeds it?
(A) Fulfilled

* * *

Give growth inhibition for every item shown.
ASSAY OVERVIEW: NCI Yeast Anticancer Drug Screen. Data for the bub3 strain (AID 167)
ASSAY CONTEXT: S. cerevisiae bub3 mutant strain, at 1.2 µM, active compounds read high
Procedure: Growth inhibition of yeast strains with defined genetic alterations is measured as a screen for potential anti-cancer activity. Selected strains with alterations in DNA damage repair or cell cycle control were exposed to compounds and growth inhibition was measured relative to vehicle treated controls. The strain used in this assay is bub3
About 79,000 compounds went through this panel and 15% of them were active in at least one assay; those are over-represented in the sample as a whole.
Express the result in % but write the number alone.

(Q) Quickly give me recorded growth inhibition for `COC1=C(N=[N+]=[N-])C(=O)c2ncccc2C1=O`
(A) 7

(Q) Quickly give me recorded growth inhibition for `[O-]c1c2cc(-[n+]3c(-c4ccccc4)cc(-c4ccccc4)cc3-c3ccccc3)cc1COCCOCCOCCOCCOC2`
(A) -4

(Q) Quickly give me recorded growth inhibition for `Nc1nc(Nc2ccccc2)nc(Nc2ccccc2)n1`
(A) -4

(Q) Quickly give me recorded growth inhibition for `O=c1[nH]cc(F)c(=O)[nH]1`
(A) 6

(Q) Quickly give me recorded growth inhibition for `CCOC(=O)/C=C1\CCCn2c1ncc(C(=O)OCC)c2=O`
(A) 2

(Q) Quickly give me recorded growth inhibition for `COc1ccc2cc(CN3CCC(C4CCN(Cc5ccc6cc(OC)ccc6c5)CC4)CC3)ccc2c1`
(A) -32

(Q) Quickly give me recorded growth inhibition for `Cc1cccc(N2CCN(C(=O)/C(=C/c3ccccc3)NC(=O)c3ccccc3)CC2)c1`
(A) -3

(Q) Quickly give me recorded growth inhibition for `Cc1ccc(SSc2ccc(C)cc2[N+](=O)[O-])c([N+](=O)[O-])c1`
(A) -3

(Q) Quickly give me recorded growth inhibition for CSc1ccc2c(c1)C(N1CCN(C)CC1)Cc1ccccc1S2 (stereo not drawn)
(A) -68

(Q) Quickly give me recorded growth inhibition for `CCCC#CCOC(=O)c1cc([N+](=O)[O-])cc([N+](=O)[O-])c1`
(A) -9

(Q) Quickly give me recorded growth inhibition for `O=S(=O)(O)CC[S][Sn]([S]CCS(=O)(=O)O)([c]1ccccc1)[c]1ccccc1`
(A) -31

(Q) Quickly give me recorded growth inhibition for `CC[C@]1(O)C[C@H]2CN(CCc3c([nH]c4ccccc34)[C@@](C(=O)OC)(c3cc4c(cc3OC)N(C)[C@H]3[C@@](O)(C(=O)OC)[C@H](OC(C)=O)[C@]5(CC)C=CCN6CC[C@]43[C@@H]65)C2)C1`
(A) 1

(Q) Quickly give me recorded growth inhibition for CCCCCCCCCCCCOC1C(COCCN2CCCC2)OC2OC(C)(C)OC21 (stereo not drawn)
(A) -18

(Q) Quickly give me recorded growth inhibition for `CC1=Cc2ccc(C)cc2C(=O)C1=O`
(A) 0

(Q) Quickly give me recorded growth inhibition for COC(=O)C1(N2CCOCC2)CCC([C@@H](c2ccccc2)C(C)[N+](=O)[O-])C1 (stereo partly drawn)
(A) -1

(Q) Quickly give me recorded growth inhibition for `CN(Cc1cccc2ccccc12)Cc1cccc2ccccc12`
(A) -2

(Q) Quickly give me recorded growth inhibition for `Cc1ccc(N(C=O)c2c([N+](=O)[O-])cc([N+](=O)[O-])c3c2=[N+]([O-])CN=3)cc1`
(A) -1

(Q) Quickly give me recorded growth inhibition for `CCOC(=O)/C(O)=C(/C=N/C(=S)Nc1c(CC)cccc1CC)C(=O)OCC`
(A) -9

(Q) Quickly give me recorded growth inhibition for `CNC(=O)OCc1c(COC(=O)NC)c(C)n(-c2ccc(Cl)c(Cl)c2)c1C`
(A) -31

(Q) Quickly give me recorded growth inhibition for `O=[N+]([O-])c1ccc2nnnn2c1`
(A) -3

(Q) Quickly give me recorded growth inhibition for `C=Cc1c(C)c(O)cc2c1-c1ccc(O)c(C)c1CC2`
(A) -9

(Q) Quickly give me recorded growth inhibition for `O=C1C=CC(=Nc2ccc3c(c2)Cc2cc(Cl)ccc2-3)O1`
(A) 4

(Q) Quickly give me recorded growth inhibition for `O=C(c1c(F)c(F)c(F)c(F)c1F)c1c(F)c(F)c(F)c(F)c1F`
(A) 54

(Q) Quickly give me recorded growth inhibition for CCC(C)/C(C)=N/NC(N)=O (stereo not drawn)
(A) -2

(Q) Quickly give me recorded growth inhibition for CCOC(=O)C(NC(=O)c1ccccc1)[CH](c1ccccc1)[Sn]([c]1ccccc1)([c]1ccccc1)[c]1ccccc1 (stereo not drawn)
(A) -7

(Q) Quickly give me recorded growth inhibition for Cc1c(N=Nc2ccc(Cl)cc2)c(C)n(C2OC(CO)C(O)C(O)C2O)c(=S)c1C#N (stereo not drawn)
(A) 0

(Q) Quickly give me recorded growth inhibition for `c1cc(Nc2ccc3c(c2)OCO3)c2cc(C3CCCCC3)ccc2n1`
(A) -1

(Q) Quickly give me recorded growth inhibition for `CN(C)CCn1c2ccccc2c2nc3cc4ccccc4cc3nc21`
(A) -13

(Q) Quickly give me recorded growth inhibition for OC1C#CCSCC#C/C=C\1 (stereo not drawn)
(A) -8

(Q) Quickly give me recorded growth inhibition for CC[N+]1(C)CCC(O)(/C=C/c2ccc(Cl)c(Cl)c2)C(C(=O)/C=C/c2ccc(Cl)c(Cl)c2)C1 (stereo not drawn)
(A) 0

(Q) Quickly give me recorded growth inhibition for `Cc1c2ccncc2c(C)c2c1oc1ccccc12`
(A) 19

(Q) Quickly give me recorded growth inhibition for `Cc1ccc2oc(-c3cccc(N)c3)nc2c1`
(A) -6

(Q) Quickly give me recorded growth inhibition for `Cc1nc2ccccc2c(=O)n1NC(=O)c1ccc(CS)cc1`
(A) 16

(Q) Quickly give me recorded growth inhibition for COc1cc(C(C)C(C(=O)O)C(=O)C(=O)O)cc(OC)c1OC (stereo not drawn)
(A) 1

(Q) Quickly give me recorded growth inhibition for `O=C1C(Br)=CC(Br)(Br)C=C1Br`
(A) -8

(Q) Quickly give me recorded growth inhibition for `Nc1cccc2cc(Cl)cnc12`
(A) 3

(Q) Quickly give me recorded growth inhibition for `O=C(O)CN(CCNC(=O)OCC1c2ccccc2-c2ccccc21)CCNC(=O)OCC1c2ccccc2-c2ccccc21`
(A) -1

(Q) Quickly give me recorded growth inhibition for `c1cc2ccc3cc4ncccc4c4ccc(c1)c2c34`
(A) -2
